- EXPERIMENTAL_SYSTEM: ERRβ (Homo sapiens)
- Sequence (O95718 208-432 limits assumed): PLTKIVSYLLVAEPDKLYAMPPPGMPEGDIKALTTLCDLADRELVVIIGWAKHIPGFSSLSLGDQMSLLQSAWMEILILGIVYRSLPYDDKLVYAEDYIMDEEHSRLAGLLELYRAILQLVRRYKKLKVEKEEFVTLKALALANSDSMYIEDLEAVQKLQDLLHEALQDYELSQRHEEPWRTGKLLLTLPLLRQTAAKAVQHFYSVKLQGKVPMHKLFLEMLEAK
pIC50: −log10 of the molar value.
MEASURED_ENDPOINT: pIC50

Enquiry: What does the record list as pIC50 for CN(C)CCOc1ccc(/C(=C(/CCCO)c2ccc3cnn(C)c3c2)c2ccc(O)cc2)cc1 [Compound 15g] ?
Return: < 5.00
